System: HT29 cells
measurement_protocol: Cellular uptake of Pt by ICP-MS
Assay type: cell-based
experimental_context: HT29, 3 µM, 3 h
metric_name: Intracellular Concentration (nmol/10^6 cells)

INSERT INTO results (compound, metric_name, uom, reported_measurement) VALUES
  ('Cc1cc2cccnc2c2ncccc12.N[C@H]1CCCC[C@@H]1N.O=[N+]([O-])[O-].O=[N+]([O-])[O-].[OH][Pt+2][OH]', 'Intracellular Concentration', 'nmol/10^6 cells', 0.33),
  ('N[C@H]1CCCC[C@@H]1N.O=[N+]([O-])[O-].O=[N+]([O-])[O-].[Pt+2].c1cnc2c(c1)ccc1cccnc12', 'Intracellular Concentration', 'nmol/10^6 cells', 2.77),
  ('Cc1c(C)c2cccnc2c2ncccc12.N[C@H]1CCCC[C@@H]1N.O=[N+]([O-])[O-].O=[N+]([O-])[O-].[Pt+2]', 'Intracellular Concentration', 'nmol/10^6 cells', 2.23),
  ('N[C@H]1CCCC[C@@H]1N.O=[N+]([O-])[O-].O=[N+]([O-])[O-].[OH-].[OH-].[Pt+4].c1cnc2c(c1)ccc1cccnc12', 'Intracellular Concentration', 'nmol/10^6 cells', 0.33),
  ('Cc1cc2cccnc2c2ncccc12.N[C@H]1CCCC[C@@H]1N.O=[N+]([O-])[O-].O=[N+]([O-])[O-].[Pt+2]', 'Intracellular Concentration', 'nmol/10^6 cells', 2.75),
  ('Cc1c(C)c2cccnc2c2ncccc12.N[C@H]1CCCC[C@@H]1N.O=[N+]([O-])[O-].O=[N+]([O-])[O-].[OH][Pt+2][OH]', 'Intracellular Concentration', 'nmol/10^6 cells', 0.42),
  ('N.N.[Cl][Pt][Cl] [Cisplatin, cisplatin]', 'Intracellular Concentration', 'nmol/10^6 cells', 0.28);

----------
Test system: MDA−MB−231 cells
measurement_protocol: Cellular uptake of Pt by ICP-MS
Assay type: cell-based
experimental_context: MDA−MB−231, extracellular 3 µM, 0 h
Catalogue of Intracellular/extracellular ratio readings, one per entry.
metric_name: Intracellular/extracellular ratio

INSERT INTO assay_data (substance_smiles, tested_target, reported_measurement) VALUES
  ('Cc1cc2cccnc2c2ncccc12.N[C@H]1CCCC[C@@H]1N.O=[N+]([O-])[O-].O=[N+]([O-])[O-].[OH][Pt+2][OH]', 'MDA−MB−231 cells', 26.14),
  ('N[C@H]1CCCC[C@@H]1N.O=[N+]([O-])[O-].O=[N+]([O-])[O-].[OH-].[OH-].[Pt+4].c1cnc2c(c1)ccc1cccnc12', 'MDA−MB−231 cells', 21.21),
  ('N[C@H]1CCCC[C@@H]1N.O=[N+]([O-])[O-].O=[N+]([O-])[O-].[Pt+2].c1cnc2c(c1)ccc1cccnc12', 'MDA−MB−231 cells', 63.45),
  ('Cc1c(C)c2cccnc2c2ncccc12.N[C@H]1CCCC[C@@H]1N.O=[N+]([O-])[O-].O=[N+]([O-])[O-].[Pt+2]', 'MDA−MB−231 cells', 107.16),
  ('Cc1cc2cccnc2c2ncccc12.N[C@H]1CCCC[C@@H]1N.O=[N+]([O-])[O-].O=[N+]([O-])[O-].[Pt+2]', 'MDA−MB−231 cells', 57.65);

----------
Tested on: HT29 cells
measurement_protocol: TMRE mitochondrial membrane potential assay
Assay type: cell-based
experimental_context: HT29, 24 h, complexes at IC50, FCCP 20 µM
// returns f unless MtMp (mitochondrial membrane potential) is strictly below 300 RFU, in which case t

INSERT INTO results (molecule, classification) VALUES
  ('N.N.[Cl][Pt][Cl] [Cisplatin, cisplatin]', 't'),
  ('N[C@H]1CCCC[C@@H]1N.O=[N+]([O-])[O-].O=[N+]([O-])[O-].[OH-].[OH-].[Pt+4].c1cnc2c(c1)ccc1cccnc12', 'f'),
  ('N[C@H]1CCCC[C@@H]1N.O=[N+]([O-])[O-].O=[N+]([O-])[O-].[Pt+2].c1cnc2c(c1)ccc1cccnc12', 'f'),
  ('Cc1cc2cccnc2c2ncccc12.N[C@H]1CCCC[C@@H]1N.O=[N+]([O-])[O-].O=[N+]([O-])[O-].[Pt+2] [Pt^II5MESS]', 't'),
  ('N#CC(C#N)=NNc1ccc(OC(F)(F)F)cc1 [FCCP, reference compound]', 't'),
  ('Cc1c(C)c2cccnc2c2ncccc12.N[C@H]1CCCC[C@@H]1N.O=[N+]([O-])[O-].O=[N+]([O-])[O-].[Pt+2] [Pt^II56MESS]', 't'),
  ('Cc1c(C)c2cccnc2c2ncccc12.N[C@H]1CCCC[C@@H]1N.O=[N+]([O-])[O-].O=[N+]([O-])[O-].[OH][Pt+2][OH] [Pt^IV56MESS(OH)2]', 't');

----------
Catalogue of Cytochrome C/GAPDH normalized to control (1) readings, one per entry.
Tested on: MDA−MB−231 cells
measurement_protocol: Western blot protein expression
Type: cell-based
experimental_context: MDA−MB−231, IC50, 72 h, representative blot Figure S26C
metric_name: Cytochrome C/GAPDH normalized to control (1)

INSERT INTO assay_data (compound, reported_measurement) VALUES
  ('Cc1c(C)c2cccnc2c2ncccc12.N[C@H]1CCCC[C@@H]1N.O=[N+]([O-])[O-].O=[N+]([O-])[O-].[OH][Pt+2][OH] [Pt^IV56MESS(OH)2]', 2.185),
  ('N.N.[Cl][Pt][Cl] [Cisplatin, cisplatin]', 2.371),
  ('Cc1c(C)c2cccnc2c2ncccc12.N[C@H]1CCCC[C@@H]1N.O=[N+]([O-])[O-].O=[N+]([O-])[O-].[Pt+2] [Pt^II56MESS]', 3.109),
  ('N[C@H]1CCCC[C@@H]1N.O=[N+]([O-])[O-].O=[N+]([O-])[O-].[OH-].[OH-].[Pt+4].c1cnc2c(c1)ccc1cccnc12', 2.378),
  ('N[C@H]1CCCC[C@@H]1N.O=[N+]([O-])[O-].O=[N+]([O-])[O-].[Pt+2].c1cnc2c(c1)ccc1cccnc12', 1.827),
  ('Cc1cc2cccnc2c2ncccc12.N[C@H]1CCCC[C@@H]1N.O=[N+]([O-])[O-].O=[N+]([O-])[O-].[OH][Pt+2][OH] [Pt^IV5MESS(OH)2]', 2.795),
  ('Cc1cc2cccnc2c2ncccc12.N[C@H]1CCCC[C@@H]1N.O=[N+]([O-])[O-].O=[N+]([O-])[O-].[Pt+2] [Pt^II5MESS]', 1.513);

----------
Catalogue of Intracellular Concentration readings, one per entry.
Tested on: MDA−MB−231 cells
measurement_protocol: Cellular uptake of Pt by ICP-MS
Assay type: cell-based
experimental_context: MDA−MB−231, 3 µM, 24 h
metric_name: Intracellular Concentration (nmol/10^6 cells)

INSERT INTO assay_data (substance_smiles, reported_measurement) VALUES
  ('Cc1cc2cccnc2c2ncccc12.N[C@H]1CCCC[C@@H]1N.O=[N+]([O-])[O-].O=[N+]([O-])[O-].[Pt+2]', 5.64),
  ('Cc1c(C)c2cccnc2c2ncccc12.N[C@H]1CCCC[C@@H]1N.O=[N+]([O-])[O-].O=[N+]([O-])[O-].[Pt+2]', 5.38),
  ('Cc1cc2cccnc2c2ncccc12.N[C@H]1CCCC[C@@H]1N.O=[N+]([O-])[O-].O=[N+]([O-])[O-].[OH][Pt+2][OH]', 1.31);

----------
Tested on: HT29 cells
measurement_protocol: Western blot protein expression
Format: cell-based
experimental_context: HT29, IC50, 72 h, representative blot Figure S31B
Protocol: Protein extraction was then performed on ice. Media were collected in Eppendorf tubes, and centrifuged at 500× g for 5 min at 4 °C. […] Blot images were obtained using the Odyssey® FC imaging system (LI-COR Biosciences, Lincoln, NE, USA) and band intensities were quantified relatively to glyceraldehyde-3-phosphate dehydrogenase (GAPDH) and then normalised each replicate gel to its corresponding no treatment control using the ImageJ v1.53t software (National Institutes of Health, Bethesda, MD, USA). […]
Label Yes for high-side ATG5/GAPDH normalized to control (1) (at or above 0.6) and No for low-side ATG5/GAPDH normalized to control (1) (below it).

INSERT INTO measurements (compound, classification) VALUES
  ('Cc1c(C)c2cccnc2c2ncccc12.N[C@H]1CCCC[C@@H]1N.O=[N+]([O-])[O-].O=[N+]([O-])[O-].[Pt+2]', 'Yes'),
  ('N.N.[Cl][Pt][Cl] [Cisplatin, cisplatin]', 'Yes'),
  ('N[C@H]1CCCC[C@@H]1N.O=[N+]([O-])[O-].O=[N+]([O-])[O-].[OH-].[OH-].[Pt+4].c1cnc2c(c1)ccc1cccnc12', 'No'),
  ('Cc1cc2cccnc2c2ncccc12.N[C@H]1CCCC[C@@H]1N.O=[N+]([O-])[O-].O=[N+]([O-])[O-].[OH][Pt+2][OH]', 'No'),
  ('N[C@H]1CCCC[C@@H]1N.O=[N+]([O-])[O-].O=[N+]([O-])[O-].[Pt+2].c1cnc2c(c1)ccc1cccnc12', 'Yes'),
  ('Cc1c(C)c2cccnc2c2ncccc12.N[C@H]1CCCC[C@@H]1N.O=[N+]([O-])[O-].O=[N+]([O-])[O-].[OH][Pt+2][OH]', 'No'),
  ('Cc1cc2cccnc2c2ncccc12.N[C@H]1CCCC[C@@H]1N.O=[N+]([O-])[O-].O=[N+]([O-])[O-].[Pt+2]', 'Yes');
